Test: amyloid nucleation score (Sup35N fusion, yeast selection) (log enrichment); library NNK2; higher = more nucleation; inactive = no reads after selection;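 note: zero at mode of non-aggregating sequences after 7 days selection at 30°C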
property-name: amyloid nucleation score
Number only, please.

Worked examples follow.
{"substance": "YRDNCMRNIENSVT", "val": -0.802}
{"substance": "MRHMYRPPIVSLHRVAIGFM", "val": -0.906}
{"substance": "MVKLFSLSTS", "val": -0.533}
{"substance": "LVCYLMTMNSNGARSRGVPF", "val": 5.99}
{"substance": "CDGTLCWKPGWYGDQKFERR", "val": 1.32}

Proceed to the following item.
**Query** Need amyloid nucleation score of `MWVPFASWLCK` , thanks.
**Result** -0.08
